System: DU145 cells
protocol-details: Proliferation assay DU145
Assay type: cell-based, human
stated-conditions: Homo sapiens, DU-145, 96 h, 4 days, crystal violet; read-out: Inhibition of DU145 cell proliferation IC50
Excerpt: […]
pIC50: −log10 of the molar value.

{"compound": "CS(=N)(=O)Cc1cc2nc(c1)OCCCCOc1cc(F)ccc1-c1cc(ncc1F)N2 (racemic)", "test-target": "DU145 cells", "pIC50": 7.80}
{"compound": "CN=S(C)(=O)Cc1cc2nc(c1)OCCCOc1cc(F)ccc1-c1cc(ncc1F)N2 (racemic)", "test-target": "DU145 cells", "pIC50": 7.11}
{"compound": "CCOC(=O)N=S(C)(=O)Cc1cc2nc(c1)OCCCOc1cc(F)ccc1-c1cc(ncc1F)N2 (racemic)", "test-target": "DU145 cells", "pIC50": 7.26}
{"compound": "CSCc1cc2nc(c1)OCCCCOc1cc(F)ccc1-c1cc(ncc1F)N2", "test-target": "DU145 cells", "pIC50": 6.66}
{"compound": "CS(=N)(=O)Cc1cc2cc(c1)OCCCOc1cc(F)ccc1-c1nc(ncc1F)N2 (racemic)", "test-target": "DU145 cells", "pIC50": 7.77}
{"compound": "CSCc1cc2cc(c1)OCCCOc1cc(F)ccc1-c1nc(ncc1F)N2", "test-target": "DU145 cells", "pIC50": 6.95}
{"compound": "C[S+]([O-])Cc1cc2nc(c1)OCCCOc1cc(F)ccc1-c1cc(ncc1F)N2 (racemic)", "test-target": "DU145 cells", "pIC50": 7.96}
{"compound": "NCCS(=O)(=O)Cc1cc2nc(c1)OCCCOc1cc(F)ccc1-c1cc(ncc1F)N2", "test-target": "DU145 cells", "pIC50": 6.41}
{"compound": "CSCc1cc2nc(c1)OCCCOc1cc(F)ccc1-c1cc(ncc1F)N2", "test-target": "DU145 cells", "pIC50": 7.06}
{"compound": "CS(=N)(=O)Cc1cc2cc(c1)OCCCCOc1cc(F)ccc1-c1nc(ncc1F)N2 (racemic)", "test-target": "DU145 cells", "pIC50": 8.00}
{"compound": "CCNC(=O)N=S(C)(=O)Cc1cc2nc(c1)OCCCOc1cc(F)ccc1-c1cc(ncc1F)N2 (racemic)", "test-target": "DU145 cells", "pIC50": 7.44}
{"compound": "CS(=O)(Cc1cc2nc(c1)OCCCOc1cc(F)ccc1-c1cc(ncc1F)N2)=NC(=O)OCCN (racemic)", "test-target": "DU145 cells", "pIC50": 6.91}
{"compound": "CS(=N)(=O)Cc1cc2nc(c1)OCCCOc1cc(F)ccc1-c1cc(ncc1F)N2 (racemic) [Example 5]", "test-target": "DU145 cells", "pIC50": 8.40}
{"compound": "CS(=N)(=O)Cc1cc2nc(c1)OCCCOc1cc(F)ccc1-c1cc(ncc1F)N2 (single isomer, unassigned; enantiomer 1) [Example 6]", "test-target": "DU145 cells", "pIC50": 8.40}
{"compound": "CS(=O)(Cc1cc2cc(c1)OCCCOc1cc(F)ccc1-c1nc(ncc1F)N2)=NC(=O)C(F)(F)F (racemic)", "test-target": "DU145 cells", "pIC50": 7.77}
{"compound": "CS(=O)(Cc1cc2nc(c1)OCCCOc1cc(F)ccc1-c1cc(ncc1F)N2)=NC(=O)OCCCl (racemic)", "test-target": "DU145 cells", "pIC50": 7.51}
{"compound": "C[S+]([O-])Cc1cc2nc(c1)OCCOc1cc(F)ccc1-c1cc(ncc1F)N2 (racemic)", "test-target": "DU145 cells", "pIC50": 6.49}
{"compound": "CS(=O)(=O)Cc1cc2nc(c1)OCCCOc1cc(F)ccc1-c1cc(ncc1F)N2", "test-target": "DU145 cells", "pIC50": 7.77}
{"compound": "CS(=N)(=O)Cc1cc2nc(c1)OCCOc1cc(F)ccc1-c1cc(ncc1F)N2 (racemic)", "test-target": "DU145 cells", "pIC50": 6.80}
{"compound": "C[S+]([O-])Cc1cc2nc(c1)OCCCCOc1cc(F)ccc1-c1cc(ncc1F)N2 (racemic)", "test-target": "DU145 cells", "pIC50": 7.52}
{"compound": "CC(=O)N=S(C)(=O)Cc1cc2nc(c1)OCCCOc1cc(F)ccc1-c1cc(ncc1F)N2 (racemic)", "test-target": "DU145 cells", "pIC50": 7.59}
{"compound": "CS(=O)(=O)N=S(C)(=O)Cc1cc2nc(c1)OCCCOc1cc(F)ccc1-c1cc(ncc1F)N2 (racemic)", "test-target": "DU145 cells", "pIC50": 7.40}
